Entries and their GI50
- Tested on: SK-MEL-2 melanoma
- ASSAY NOTES: NCI tumour cell line growth inhibition, 48 h

# COMPOUND, SYSTEM NAME, RESULT
measured = [
    ("Cc1ccc(C)c(N2CCN(c3ccncc3N)CC2)c1", "SK-MEL-2 melanoma", "15600 nM"),
    ("COc1cc(C(=O)/C=C/c2c[nH]c3ccccc23)cc(OC)c1OC", "SK-MEL-2 melanoma", "39.2 nM"),
    ("CC/C(=C/c1ccc(OC)cc1)[N+](=O)[O-]", "SK-MEL-2 melanoma", "2020 nM"),
    ("COC(=O)c1sc(-n2cnc3cc(OC)c(OC)cc32)cc1OCc1ccccc1C(F)(F)F", "SK-MEL-2 melanoma", "> 19000 nM"),
    ("CCCCCCCCCC(=O)Oc1ccc(/C(=C(/C)c2ccccc2)c2ccc(OCCN3CCCC3)cc2)cc1", "SK-MEL-2 melanoma", "9490 nM"),
    ("COc1cc(/C=N\\Nc2ccccc2)ccc1OC(=O)c1ccccc1", "SK-MEL-2 melanoma", "2100 nM"),
    ("CCCCCn1sc(=O)n(Cc2ccc(CNC(=O)C(C)c3ccc(CC(C)C)cc3)cc2)c1=O (centres undefined)", "SK-MEL-2 melanoma", "1500 nM"),
    ("CC[C@H](C)[C@H](NC(=O)CN(C)C)C(=O)N(C)[C@H](C[C@@H](OC(C)=O)c1nc(C(=O)NC23C4C5C2C2C3C4C52C(=O)OC)cs1)C(C)C (some centres undefined)", "SK-MEL-2 melanoma", "838 nM"),
]

Lab note: N#Cc1ccc2c(-c3ccnc(NC4CC4)n3)c(-c3ccc(F)cc3)nn2c1 gave GI50 of > 25000 nM
